# TEST NAME: Therapeutic index, ratio of inhibition of human H9 cells to EC50 for HIV1 3B
# Type: cell-based
VALUE TYPE: selectivity ratio

What selectivity ratio value was documented for this compound, C[C@@]12CCC[C@@](C)(C(=O)O)[C@H]1CC[C@@]13C[C@@H](CC[C@H]12)[C@](O)(CO)C3 ? > 5

Where do the numbers come from? From ChEMBL document CHEMBL1158287.
